Cited source: paper PMC7571151

- System: PC-3 cells
- Test Protocol: Anti-proliferative MTT assay
- Type: cell-based
- Condition Details: Homo sapiens, 96 h incubation, mean of three experiments
Quantity Measured: GI50 (µM)
Give bare numbers, in µM.

Items follow; give GI50 for each.
1. O=C(NO)c1ccc(-c2ccc3ncnc(Nc4ccc(F)cc4)c3n2)cc1 [Compound A07]
2. O=C(CCCCCCNc1ccc2ncnc(Nc3ccc(F)cc3)c2n1)NO [Compound A12]
3. O=C(NO)c1ccc(COc2ccc3ncnc(Nc4ccc(F)cc4)c3n2)cc1 [Compound A09]
4. O=C(/C=C/c1ccc(-c2ccc3ncnc(Nc4ccc(F)cc4)c3n2)cc1)NO [Compound A08]
5. O=C(CCCCCCNc1ccc2ncnc(Nc3ccc(F)cc3Cl)c2n1)NO [Compound A15]

Solution:
11.4
2.91
12.7
4.02
14.3

----------
Quantity Measured: melting point

See these solved cases before continuing.
Substance Smiles: O=C(NO)c1ccc(COc2ccc3ncnc(Nc4ccc(F)cc4)c3n2)cc1
melting point: 169.8 to 171.1 °C

Substance Smiles: CNC(=O)c1cc(F)ccc1Nc1ncnc2ccc(NCCCCCCC(=O)NO)nc12
melting point: 185.5 to 187 °C

Substance Smiles: Nc1ccccc1NC(=O)c1ccc(CNc2ccc3ncnc(Nc4ccc(F)cc4)c3n2)cc1
melting point: 202.8 to 204.1 °C

Substance Smiles: O=C(CCCCCCNc1ccc2ncnc(Nc3ccc(F)cc3Cl)c2n1)NO
melting point: 203.9 to 205.1 °C

Substance Smiles: O=C(/C=C/c1ccc(-c2ccc3ncnc(Nc4ccc(F)cc4)c3n2)cc1)NO
melting point: 178.1 to 180 °C

Substance Smiles: O=C(CCCCCCNc1ccc2ncnc(Nc3ccc(F)cc3F)c2n1)NO
melting point: 188.8 to 191.7 °C

Substance Smiles: O=C(CCCCCNc1ccc2ncnc(Nc3ccc(F)cc3)c2n1)NO
melting point: 187.6 to 189.5 °C

Substance Smiles: Nc1ccccc1NC(=O)c1ccc(COc2ccc3ncnc(Nc4ccc(F)cc4)c3n2)cc1
melting point: 216.3 to 218 °C

Items follow; give melting point for each.
1. CC(C)Oc1cc(F)ccc1Nc1ncnc2ccc(NCCCCCCC(=O)NO)nc12
2. Nc1ccccc1NC(=O)/C=C/c1ccc(-c2ccc3ncnc(Nc4ccc(F)cc4)c3n2)cc1

Solution:
191.3 to 193 °C
263.8 to 265.5 °C

----------
- System: Mnk2 (Homo sapiens, UniProt Q9HBH9)
- Sequence (Q9HBH9 whole entry): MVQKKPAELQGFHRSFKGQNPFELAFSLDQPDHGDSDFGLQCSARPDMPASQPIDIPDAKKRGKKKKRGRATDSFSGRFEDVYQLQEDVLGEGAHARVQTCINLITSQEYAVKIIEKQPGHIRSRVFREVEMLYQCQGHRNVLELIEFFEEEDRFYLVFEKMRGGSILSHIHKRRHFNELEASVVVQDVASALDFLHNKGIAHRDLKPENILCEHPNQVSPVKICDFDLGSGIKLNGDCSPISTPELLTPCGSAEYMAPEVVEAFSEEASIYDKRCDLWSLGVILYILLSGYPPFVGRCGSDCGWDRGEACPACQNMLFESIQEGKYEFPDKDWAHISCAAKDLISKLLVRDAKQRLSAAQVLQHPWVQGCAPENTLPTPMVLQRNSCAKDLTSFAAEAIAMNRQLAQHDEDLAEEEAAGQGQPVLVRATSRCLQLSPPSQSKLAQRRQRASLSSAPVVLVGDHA
- Test Protocol: Mnks inhibition HTRF assay (Mnk2)
- Type: biochemical
- Condition Details: compound at 1 μM, 39.2 µM ATP, mean of triple independent experiments, read-out: %inhib. 1 μM Mnk2
Outcome label depends on inhibition at 1 µM relative to 50%: at/above gives Criterion met, below gives Criterion not met.

Worked cases, answers included:
Molecule: O=C(CCCCCCNc1ccc2ncnc(Nc3ccc(F)cc3F)c2n1)NO
Group Label: Criterion not met
--
Molecule: COc1cc(F)ccc1Nc1ncnc2ccc(NCCCCCCC(=O)NO)nc12
Group Label: Criterion not met
--
Molecule: O=C(c1ccc(-c2ccc3ncnc(Nc4ccc(F)cc4)c3n2)cc1)N1CCNCC1 [Compound D06, reference compound]
Group Label: Criterion met
--
Molecule: Nc1ccccc1NC(=O)CCCCCNc1ccc2ncnc(Nc3ccc(F)cc3)c2n1
Group Label: Criterion not met

Exercise: For this molecule, is measured inhibition at 1 µM 50% or higher? O=C(/C=C/c1ccc(-c2ccc3ncnc(Nc4ccc(F)cc4)c3n2)cc1)NO
Solution: Criterion not met

Exercise: For this molecule, is measured inhibition at 1 µM 50% or higher? Nc1ccccc1NC(=O)/C=C/c1ccc(-c2ccc3ncnc(Nc4ccc(F)cc4)c3n2)cc1
Solution: Criterion met

Exercise: For this molecule, is measured inhibition at 1 µM 50% or higher? CNC(=O)c1cc(F)ccc1Nc1ncnc2ccc(NCCCCCCC(=O)NO)nc12
Solution: Criterion not met

Exercise: For this molecule, is measured inhibition at 1 µM 50% or higher? Nc1ccccc1NC(=O)c1ccc(-c2ccc3ncnc(Nc4ccc(F)cc4)c3n2)cc1
Solution: Criterion met

Exercise: For this molecule, is measured inhibition at 1 µM 50% or higher? O=C(CCCCCCNc1ccc2ncnc(Nc3ccc(F)cc3)c2n1)NO
Solution: Criterion met

----------
- System: Mnk1 (Homo sapiens, UniProt Q9BUB5)
- Construct: 1.00 ng of Mnk1 or Mnk2 was incubated with different concentrations
- Sequence (Q9BUB5 whole entry): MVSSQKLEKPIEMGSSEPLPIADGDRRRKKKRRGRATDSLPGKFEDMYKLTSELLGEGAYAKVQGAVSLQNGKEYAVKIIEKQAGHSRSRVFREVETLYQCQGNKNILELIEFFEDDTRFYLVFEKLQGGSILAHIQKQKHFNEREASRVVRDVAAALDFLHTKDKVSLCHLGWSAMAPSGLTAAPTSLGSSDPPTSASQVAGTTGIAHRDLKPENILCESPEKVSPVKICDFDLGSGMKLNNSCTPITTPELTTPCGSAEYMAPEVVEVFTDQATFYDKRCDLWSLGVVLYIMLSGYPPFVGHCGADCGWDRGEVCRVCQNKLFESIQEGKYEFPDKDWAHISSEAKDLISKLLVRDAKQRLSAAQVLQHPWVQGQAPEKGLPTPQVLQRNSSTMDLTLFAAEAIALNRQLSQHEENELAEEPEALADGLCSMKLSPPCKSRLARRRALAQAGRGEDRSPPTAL
- Test Protocol: Mnks inhibition HTRF assay (Mnk1)
- Assay type: biochemical
- Condition Details: compound at 1 μM, 121 µM ATP, mean of triple independent experiments, read-out: %inhib. 1 μM Mnk1
What inhibition at 1 µM was measured for each of the following?
A bare number is not enough; add the unit after it.

See these solved cases before continuing.
Compound: Nc1ccccc1NC(=O)c1ccc(CNc2ccc3ncnc(Nc4ccc(F)cc4)c3n2)cc1 [Compound A04]
Quantity Measured: inhibition at 1 µM
Val: 29%
--
Compound: O=C(CCCCCCNc1ccc2ncnc(Nc3ccc(F)cc3)c2n1)NO [Compound A12]
Quantity Measured: inhibition at 1 µM
Val: 54%
--
Compound: Nc1ccccc1NC(=O)c1ccc(COc2ccc3ncnc(Nc4ccc(F)cc4)c3n2)cc1 [Compound A03]
Quantity Measured: inhibition at 1 µM
Val: 33%

Items follow; give inhibition at 1 µM for each.
1. Nc1ccccc1NC(=O)CCCCCCNc1ccc2ncnc(Nc3ccc(F)cc3)c2n1 [Compound A06]
2. O=C(NO)c1ccc(-c2ccc3ncnc(Nc4ccc(F)cc4)c3n2)cc1 [Compound A07]
3. O=C(CCCCCCNc1ccc2ncnc(Nc3ccc(F)cc3F)c2n1)NO [Compound A17]
4. O=C(CCCCCNc1ccc2ncnc(Nc3ccc(F)cc3)c2n1)NO [Compound A11]

Solution:
1. 29%
2. 8%
3. 29%
4. 49%

----------
- Tested on: PC-3 cells
- Test Protocol: Anti-proliferative MTT assay
- Format: cell-based
- Condition Details: Homo sapiens, 96 h incubation, mean of three experiments
Quantity Measured: GI50

Molecule: CC(C)Oc1cc(F)ccc1Nc1ncnc2ccc(NCCCCCCC(=O)NO)nc12
GI50: 10.6 µM

Molecule: O=C(CCCCCNc1ccc2ncnc(Nc3ccc(F)cc3)c2n1)NO
GI50: > 20 µM

Molecule: Nc1ccccc1NC(=O)CCCCCNc1ccc2ncnc(Nc3ccc(F)cc3)c2n1
GI50: > 20 µM

// moving on: another record for GI50
Exercise: State GI50 on PC-3 cells. Entry: O=C(c1ccc(-c2ccc3ncnc(Nc4ccc(F)cc4)c3n2)cc1)N1CCNCC1 [Compound D06, reference compound]
Solution: 9.28 µM

----------
- System: PC-3 cells
- Test Protocol: Anti-proliferative MTT assay
- Format: cell-based
- Condition Details: Homo sapiens, 96 h incubation, mean of three experiments
What GI50 was measured for each of the following?
Give bare numbers, in µM.

Substance Smiles: Nc1ccccc1NC(=O)c1ccc(COc2ccc3ncnc(Nc4ccc(F)cc4)c3n2)cc1
Units: µM
Val: 7.5

Exercise: Recall and state the measured GI50 for O=C(NO)c1ccc(CNc2ccc3ncnc(Nc4ccc(F)cc4)c3n2)cc1 .
Solution: 18.3

----------
What inhibition at 1 µM was measured for each of the following?
- System: Mnk1 (Homo sapiens, UniProt Q9BUB5)
- Construct: 1.00 ng of Mnk1 or Mnk2 was incubated with different concentrations
- Test Protocol: Mnks inhibition HTRF assay (Mnk1)
- Format: biochemical
- Condition Details: compound at 1 μM, 121 µM ATP, mean of triple independent experiments, read-out: %inhib. 1 μM Mnk1
One number for each entry, in %.

Molecule: Nc1ccccc1NC(=O)CCCCCNc1ccc2ncnc(Nc3ccc(F)cc3)c2n1 [Compound A05]
Val: 30

Items follow; give inhibition at 1 µM for each.
1. O=C(NO)c1ccc(CNc2ccc3ncnc(Nc4ccc(F)cc4)c3n2)cc1 [Compound A10]
2. CNC(=O)c1cc(F)ccc1Nc1ncnc2ccc(NCCCCCCC(=O)NO)nc12 [Compound A16]
3. Nc1ccccc1NC(=O)/C=C/c1ccc(-c2ccc3ncnc(Nc4ccc(F)cc4)c3n2)cc1 [Compound A02]
4. O=C(c1ccc(-c2ccc3ncnc(Nc4ccc(F)cc4)c3n2)cc1)N1CCNCC1 [Compound D06, reference compound]
5. Nc1ccccc1NC(=O)c1ccc(-c2ccc3ncnc(Nc4ccc(F)cc4)c3n2)cc1 [Compound A01]
6. O=C(CCCCCCNc1ccc2ncnc(Nc3ccc(F)c(Cl)c3)c2n1)NO [Compound A19]
7. O=C(/C=C/c1ccc(-c2ccc3ncnc(Nc4ccc(F)cc4)c3n2)cc1)NO [Compound A08]

Solution:
[24, 29, 28, 83, 36, 16, 25]

----------
What melting point was measured for each of the following?

Molecule: Nc1ccccc1NC(=O)c1ccc(-c2ccc3ncnc(Nc4ccc(F)cc4)c3n2)cc1 [Compound A01]
melting point: 211.2 to 213 °C

Items follow; give melting point for each.
1. O=C(CCCCCCNc1ccc2ncnc(Nc3ccc(F)c(Cl)c3)c2n1)NO [Compound A19]
2. COc1cc(Nc2ncnc3ccc(NCCCCCCC(=O)NO)nc23)ccc1F [Compound A18]

Solution:
207.9 to 208.5 °C
178.6 to 180 °C

Items follow; give melting point for each.
1. Nc1ccccc1NC(=O)CCCCCNc1ccc2ncnc(Nc3ccc(F)cc3)c2n1 [Compound A05]
2. O=C(NO)c1ccc(-c2ccc3ncnc(Nc4ccc(F)cc4)c3n2)cc1 [Compound A07]
3. O=C(NO)c1ccc(CNc2ccc3ncnc(Nc4ccc(F)cc4)c3n2)cc1 [Compound A10]

Solution:
1: 209.5 to 211.5 °C; 2: 249 to 251.8 °C; 3: 197.7 to 199.3 °C

Items follow; give melting point for each.
1. Nc1ccccc1NC(=O)CCCCCCNc1ccc2ncnc(Nc3ccc(F)cc3)c2n1 [Compound A06]
2. COc1cc(F)ccc1Nc1ncnc2ccc(NCCCCCCC(=O)NO)nc12 [Compound A14]

Solution:
1: 125.6 to 127 °C; 2: 205.9 to 207.6 °C
